- Tested on: 873145-292-R-J1-PDC complex spheroid viability
- experiment.notes: Anticancer human tumor 873145-292-R-J1-PDC patient-derived renal clear cell carcinoma cell line growth inhibition [POLQ]
- stated.conditions: curve of first compound; second compound 0.1 µM

molecule	IC50
CC(C)n1c(=O)n(C)c2cnc3cc(F)c(-c4ccc(OCCCN5CCCCC5)nc4)cc3c21 + COC1C(OC(N)=O)C(O)C(Oc2ccc3c(O)c(NC(=O)c4ccc(O)c(CC=C(C)C)c4)c(=O)oc3c2C)OC1(C)C	> 10 µM
Cn1ncnc1[C@H]1c2n[nH]c(=O)c3cc(F)cc(c23)N[C@@H]1c1ccc(F)cc1 + Nc1ccc(C#CCN(C(=O)Cc2ncc(C(F)(F)F)cc2C(F)(F)F)c2ccc(F)cc2)nn1	> 0.1 µM
Nc1ccn(C2OC(CO)C(O)C2(F)F)c(=O)n1 (stereo not given) + Cc1cccc(N(C)C(=O)C2C(O)CCN2c2nc(C)cc(C(F)(F)F)c2C#N)c1	> 10 µM
COc1cc2cc(C(=O)CCC(=O)O)sc2cc1OC + Nc1ccc(C#CCN(C(=O)Cc2ncc(C(F)(F)F)cc2C(F)(F)F)c2ccc(F)cc2)nn1	> 10 µM
CCc1cc2c(N3CCc4c(cc(Cn5ccnc5)cc4-c4cn(C)nc4C(F)(F)F)C3=O)cc(C)nc2c(OC)n1 + Nc1ccc(C#CCN(C(=O)Cc2ncc(C(F)(F)F)cc2C(F)(F)F)c2ccc(F)cc2)nn1	> 10 µM

* * *

- System: 873145-292-R-J1-PDC complex spheroid viability
- experiment.notes: Anticancer human tumor 873145-292-R-J1-PDC cell line growth inhibition [POLQ];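 note: spheroids exposed to compounds for 7 days before viability readout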;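 for viability, T/C: luminescence signal used as surrogate for viable cell content; 100% = DMSO vehicle control viability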
- stated.conditions: second compound 0.0316 µM; first compound 0.1 µM; stronger effect = lower value
viability, T/C by entry:

compound	readout.units	viability, T/C
COc1cccc(OCCCN)c1-c1cc(Nc2cnc(C#N)cn2)n[nH]1 + COC1C(OC(N)=O)C(O)C(Oc2ccc3c(O)c(NC(=O)c4ccc(O)c(CC=C(C)C)c4)c(=O)oc3c2C)OC1(C)C	%	61.3
CC[C@@]1(O)C(=O)OCc2c1cc1n(c2=O)Cc2cc3c(CN(C)C)c(O)ccc3nc2-1 + Cc1cccc(N(C)C(=O)C2C(O)CCN2c2nc(C)cc(C(F)(F)F)c2C#N)c1	%	52.5
CC1COCCN1c1cc(C2(S(C)(=N)=O)CC2)nc(-c2ccnc3[nH]ccc23)n1 (stereo unspecified) + COC1C(OC(N)=O)C(O)C(Oc2ccc3c(O)c(NC(=O)c4ccc(O)c(CC=C(C)C)c4)c(=O)oc3c2C)OC1(C)C	%	101
C#Cc1c(F)ccc2cc(O)cc(-c3ncc4c(N5CC6CCC(C5)N6)nc(OCC56CCCN5CC(F)C6)nc4c3F)c12 (stereo unspecified) + Nc1ccc(C#CCN(C(=O)Cc2ncc(C(F)(F)F)cc2C(F)(F)F)c2ccc(F)cc2)nn1	%	103
CCc1cc2c(N3CCc4c(cc(Cn5ccnc5)cc4-c4cn(C)nc4C(F)(F)F)C3=O)cc(C)nc2c(OC)n1 + COC1C(OC(N)=O)C(O)C(Oc2ccc3c(O)c(NC(=O)c4ccc(O)c(CC=C(C)C)c4)c(=O)oc3c2C)OC1(C)C	%	98.1
C#Cc1c(F)ccc2cc(O)cc(-c3ncc4c(N5CC6CCC(C5)N6)nc(OCC56CCCN5CC(F)C6)nc4c3F)c12 (stereo unspecified) + COC1C(OC(N)=O)C(O)C(Oc2ccc3c(O)c(NC(=O)c4ccc(O)c(CC=C(C)C)c4)c(=O)oc3c2C)OC1(C)C	%	92.7
